Test system: SNB-75 CNS
PROCEDURE_DETAILS: NCI-60 one-dose screen, 48 h (100 = growth as untreated, 0 = no growth, -100 = all killed)
CONDITION_CONTEXT: 10 µM unless noted
This is part of a sample that, as a whole, favours compounds with a hit. Of some 83,000 tested, about 20% had one in any assay.
Would you mind telling me the reported growth of each entry?
One number for each entry, in %.

Some molecules with recorded growth:
>>> reading("Cn1cc(C(=O)NCCC(=N)N)cc1NC(=O)CN=C(N)N")
88.9
>>> reading("Nc1ccccc1-c1n[nH]c(=O)[nH]c1=O")
89.5
>>> reading("COc1ccc(/C=C/C(=O)N2CCC(O)CC2)cc1OC1CCCC1")
90.2

// for each molecule in input: emit growth
1. Cc1cc(=O)[nH]n1-c1cc(Cl)ccc1N
2. CCSc1nnc2c3cc(Br)ccc3n(C)c2n1

[88.4, 92.6]

====

Tested on: M14 melanoma
PROCEDURE_DETAILS: NCI-60 one-dose screen, 48 h
CONDITION_CONTEXT: 10 µM unless noted
This is part of a sample that, as a whole, favours compounds with a hit. Of some 83,000 tested, about 20% had one in any assay. The source made the active and inactive calls. The calls were made as follows: active = growth percent below 10; inactive = the rest.
Permitted responses: class 1 (active), class 0 (inactive)

>>> class_name("Cn1c2ccc(Cl)cc2c2nn(C(=O)c3ccccc3)c(=O)nc21")
"class 0"
>>> class_name("CCN1CCN(c2ccc(Nc3ncc4ccc5ncn(C(C)C)c5c4n3)nc2)CC1")
"class 1"
>>> class_name("COc1cccc(C2C3=C(COC3=O)N(CCO)c3cc4c(cc32)CCC4)c1 (stereo not drawn)")
"class 1"
>>> class_name("O=c1[nH]c(=O)n(Cc2ccc(F)cc2)cc1F")
"class 0"

In this assay, the call recorded for O=c1c2c(=NCCN3CCCC3)cc3c(=O)n(CCCN4CCOCC4)c(=O)c4ccc(c(O)n1CCCN1CCOCC1)c2c4-3 was what?
class 1

Now the same for Cc1nn(-c2ccccc2)c2nc3nc4c(c(N)c3c(-c3ccc(Cl)cc3)c12)CCCC4
class 0

Continue with CCOC(=O)C(CC(c1ccccc1)N1CCCCC1)[N+](=O)[O-] (stereo not drawn)
class 0

Try this compound too: O=C(N/N=C(\CS(=O)(=O)c1ccccc1)c1cc2ccccc2oc1=O)c1ccccc1
class 0

====

Would you kindly list growth for each of these compounds?
Tested on: SNB-19 CNS
PROCEDURE_DETAILS: NCI-60 one-dose screen, 48 h (100 = growth as untreated, 0 = no growth, -100 = all killed)
CONDITION_CONTEXT: 10 µM unless noted
The panel holds about 83,000 compounds, 20% with a hit somewhere; the sample as a whole holds those more often.
Answers are plain numbers, in %.

Illustrative cases are given below, each with its answer.
>>> reading("COC(=O)/C=C1/CCC2C3CCC4=CC(=O)C(Br)CC4(C)C3C(=O)CC12C (stereo not drawn)")
78.9
>>> reading("CCOC(=O)c1c(Cl)c2c(n1Cc1ccc(OC)cc1)-c1oncc1CCC2")
89.1

Could you now look at the following compound, please?
Which growth is reported with SNB-19 CNS for this entry: Cc1nn(CC(=O)O)c2c1C(=O)CC(C)(C)C2 ?
103

====

System: SR leukemia
PROCEDURE_DETAILS: NCI-60 one-dose screen, 48 h (100 = growth as untreated, 0 = no growth, -100 = all killed)
CONDITION_CONTEXT: 10 µM unless noted
About 83,000 compounds went through this panel and 20% of them were active in at least one assay; those are over-represented in the sample as a whole. Active and inactive are the calls of the source. How the source made its calls: active means growth percent below 10; inactive means the rest.
MEASUREMENT_NAME: growth

// below: answered compounds
>>> reading("O=C(c1ccc2ncc(-c3nc(NC4CC4)ncc3F)n2c1)N1CCOCC1")
"3.87% (active)"
>>> reading("O=c1oc2ccccc2cc1-c1csc(N=Nc2c(O)[nH]c3ccc(Cl)cc23)n1")
"102% (inactive)"
>>> reading("Cc1nn(-c2ccccc2)c2nc3nc4c(c(N)c3c(-c3ccc(Cl)cc3)c12)CCCC4")
"-15.3% (active)"
>>> reading("COc1ccc2c(c1)c(=O)oc1c(C)c(OCC(C)=O)ccc12")
"116% (inactive)"
>>> reading("C=CCCCCCCCCC(=O)[O-].C=CCCCCCCCCC(=O)[O-].[Zn+2]")
"91.1% (inactive)"
>>> reading("C[C@]1(CO)C[C@@H](O)C[C@]2(C)[C@@H]1CC[C@@]13C[C@@H]4[C@@H](C[C@H]12)[C@]4(C)C3")
"118% (inactive)"
>>> reading("COc1cc(/C=N/NC(=O)c2cnn3c2NC(c2ccccc2)C3)cc(OC)c1OC (stereo unspecified)")
"47.6% (inactive)"
>>> reading("Cc1ccc(S(=O)(=O)c2ccc3[nH]c(=O)[nH]c(=O)c3c2)cc1")
"82.3% (inactive)"

Hi there! I need growth for each item below, if you can.
1. O=c1c2cc(F)ccc2oc2c(NCCNCCO)nc3ccccc3c12
2. N#C[S-].[Au+].c1ccc(CN2[CH-]N(Cc3ccccc3)C(c3ccccc3)=C2c2ccccc2)cc1
3. Nc1cc2[nH]c(=O)c3ccccc3c2cc1Br

-28.7% (active)
-8.44% (active)
61.9% (inactive)
